- assayed target: Alpha-1B adrenergic receptor (Homo sapiens) (UniProt P35368)
- Sequence (P35368 whole entry): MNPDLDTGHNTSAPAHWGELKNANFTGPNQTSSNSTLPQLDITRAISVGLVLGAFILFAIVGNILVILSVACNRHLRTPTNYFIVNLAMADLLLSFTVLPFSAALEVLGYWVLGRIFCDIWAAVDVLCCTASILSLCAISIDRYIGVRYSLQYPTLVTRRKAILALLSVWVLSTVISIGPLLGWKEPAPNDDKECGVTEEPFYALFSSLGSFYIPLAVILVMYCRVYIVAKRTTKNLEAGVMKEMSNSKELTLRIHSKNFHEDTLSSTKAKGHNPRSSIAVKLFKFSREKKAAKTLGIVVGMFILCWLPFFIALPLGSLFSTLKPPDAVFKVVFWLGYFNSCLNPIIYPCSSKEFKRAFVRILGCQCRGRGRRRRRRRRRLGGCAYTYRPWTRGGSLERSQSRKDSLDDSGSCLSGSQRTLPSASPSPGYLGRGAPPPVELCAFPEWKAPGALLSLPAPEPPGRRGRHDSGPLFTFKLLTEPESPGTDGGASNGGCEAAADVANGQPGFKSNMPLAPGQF
- run parameters: Compound concentration 10 µM
- Description: PDSP Primary Binding target: ADRA1B - Compounds are tested at 10 uM concentration, plate are incubated at room temperature in the dark for 90 minutes. Reaction are stopped by vacuum filtration onto 0.3% polyethyleneimine soaked filter mats using Filtermate harvester. Scintilation cocktail is then melted onto microwave-dried filters on a hot plate and the radio activity is counted in Microbia counter.
observation type: inhibition (%)
A number alone suffices; assume %.

Task: Report inhibition, nothing else, for this molecule: Cc1csc2c(N[C@@H](C)CN3CCN(S(=O)(=O)c4ccc(Cl)c(Cl)c4)CC3)ncnc12
Output: 7.3

Task: Report inhibition, nothing else, for this molecule: O=C(Cc1ccccc1)Nc1nc2ccc(Cl)cc2c2nc(-c3ccco3)nn12
Output: -7.34

Task: Report inhibition, nothing else, for this molecule: COc1ccc(OC(F)(F)F)cc1CN[C@H]1CCCN[C@H]1c1ccccc1
Output: 2.37

Task: Report inhibition, nothing else, for this molecule: CC(C)[C@H](CO)Nc1nc(Nc2cccc(Cl)c2)c2ncn(C(C)C)c2n1
Output: 12.9

Task: Report inhibition, nothing else, for this molecule: COc1cc(-n2cnc3cc(-c4ccc(Cl)cc4)sc3c2=O)ccc1OCCN1CCCC1
Output: 27.2

Task: Report inhibition, nothing else, for this molecule: CCCn1c(=O)c2[nH]c(-c3cnn(Cc4cccc(C(F)(F)F)c4)c3)nc2n(CC)c1=O
Output: -5.87

Task: Report inhibition, nothing else, for this molecule: O=C(O)c1cc(-c2ccc(C3CCNCC3)cc2)c2ccc(-c3ccc(C(F)(F)F)cc3)cc2c1
Output: 38.4

Task: Report inhibition, nothing else, for this molecule: Clc1cccc(Cl)c1NC1=NCCN1
Output: 65.3

Task: Report inhibition, nothing else, for this molecule: OCc1cc(C(O)CNCCCCCCOCCCCc2ccccc2)ccc1O (stereo not drawn)
Output: 47.7

Task: Report inhibition, nothing else, for this molecule: CN1CC(=O)N=C1NC(=O)Nc1cccc(Cl)c1
Output: -6.38

Task: Report inhibition, nothing else, for this molecule: C[C@H](NC[C@H](O)CP(=O)(O)CC1CCCCC1)c1ccc(Cl)c(Cl)c1
Output: 6.11

Task: Report inhibition, nothing else, for this molecule: N#Cc1ccc2[nH]cc(CCCCN3CCN(c4ccc5oc(C(N)=O)cc5c4)CC3)c2c1
Output: 53.7

Task: Report inhibition, nothing else, for this molecule: CSc1ccc(C(=O)N[C@@H]2CCCC[C@@H]2NC(=O)CNC(=O)c2cc(C(F)(F)F)ccc2NC(=O)NC(C)C)cc1
Output: -0.4

Source listed as ChEMBL document CHEMBL5442219.
